Below are IC50 values measured for B-Raf (Homo sapiens).

CCCS(=O)(=O)Nc1ccc(F)c(C(=O)c2c[nH]c3ncc(-c4ccc(OCCCN(C)C)nc4)cc23)c1F | < 10 nM
CCCS(=O)(=O)Nc1ccc(F)c(C(=O)c2c[nH]c3ncc(-c4ccc(S(=O)(=O)C(C)C)cc4)cc23)c1F | < 10 nM
CCCS(=O)(=O)Nc1ccc(F)c(C(=O)c2c[nH]c3ncc(-c4cnn(Cc5ccccc5)c4)cc23)c1F | < 10 nM
CCCS(=O)(=O)Nc1ccc(F)c(C(=O)c2c[nH]c3ncc(-c4ccc(OCCCN5CCOCC5)nc4)cc23)c1F | < 10 nM
N#Cc1ccnc2[nH]cc(C(=O)c3c(F)ccc(NS(=O)(=O)c4c(F)cccc4F)c3F)c12 | < 100 nM

Query: Tell me reported IC50 for CCCS(=O)(=O)Nc1ccc(F)c(C(=O)c2c[nH]c3ncc(-c4cccc(S(C)(=O)=O)c4)cc23)c1F , tested with B-Raf (Homo sapiens).
Sequence (P15056 whole entry): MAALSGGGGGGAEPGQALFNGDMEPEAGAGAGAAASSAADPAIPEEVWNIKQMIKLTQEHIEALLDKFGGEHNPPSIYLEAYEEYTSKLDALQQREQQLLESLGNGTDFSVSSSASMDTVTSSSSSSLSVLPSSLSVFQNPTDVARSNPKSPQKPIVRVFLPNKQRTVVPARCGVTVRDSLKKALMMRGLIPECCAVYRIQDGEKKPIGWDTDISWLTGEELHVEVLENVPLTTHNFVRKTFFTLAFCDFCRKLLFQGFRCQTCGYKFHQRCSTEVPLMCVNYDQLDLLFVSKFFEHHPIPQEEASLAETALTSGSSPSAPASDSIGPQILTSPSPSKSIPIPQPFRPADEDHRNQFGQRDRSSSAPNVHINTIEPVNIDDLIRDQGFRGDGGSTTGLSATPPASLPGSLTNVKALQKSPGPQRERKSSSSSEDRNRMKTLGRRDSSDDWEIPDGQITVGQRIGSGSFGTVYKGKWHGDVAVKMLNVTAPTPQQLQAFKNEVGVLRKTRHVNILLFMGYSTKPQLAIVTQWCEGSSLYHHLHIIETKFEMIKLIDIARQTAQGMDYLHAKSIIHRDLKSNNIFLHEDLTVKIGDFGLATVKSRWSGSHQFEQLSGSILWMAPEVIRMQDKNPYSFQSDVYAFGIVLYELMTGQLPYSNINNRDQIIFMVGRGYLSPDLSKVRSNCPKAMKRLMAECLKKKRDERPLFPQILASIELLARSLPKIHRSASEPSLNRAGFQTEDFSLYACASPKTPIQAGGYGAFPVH
Result: < 10 nM

Query: Requested read-out IC50, target or system B-Raf (Homo sapiens), entry COc1cnc2[nH]cc(C(=O)c3c(F)ccc(NS(=O)(=O)c4ccccc4F)c3F)c2c1
Result: < 100 nM

Query: Quick check: IC50 on B-Raf (Homo sapiens), item CCCS(=O)(=O)Nc1ccc(F)c(C(=O)c2c[nH]c3ncc(-c4ccc(S(N)(=O)=O)cc4)cc23)c1F ?
Result: < 10 nM

Query: Item COc1ccnc2[nH]cc(C(=O)c3c(F)ccc(NS(=O)(=O)c4cc(F)ccc4F)c3F)c12 with B-Raf (Homo sapiens) - IC50?
Result: < 100 nM

Query: Please tell me: IC50 of CCCS(=O)(=O)Nc1ccc(F)c(C(=O)c2c[nH]c3ncc(-c4ccc(S(=O)(=O)N5CCOCC5)cc4)cc23)c1F , system B-Raf (Homo sapiens)?
Result: < 10 nM

Query: Tell me reported IC50 for O=C(c1c(F)ccc(NS(=O)(=O)c2cccc(F)c2)c1F)c1c[nH]c2nccc(Cl)c12 , tested with B-Raf (Homo sapiens).
Result: < 10 nM

Query: Observed IC50 on B-Raf (Homo sapiens) for CCCS(=O)(=O)Nc1ccc(F)c(C(=O)c2c[nH]c3ncc(-c4ccc(NS(C)(=O)=O)cc4)cc23)c1F , please.
Result: < 10 nM

----------
Biological target: CYP2C19 (Homo sapiens, UniProt P33261)
Sequence (P33261 whole entry): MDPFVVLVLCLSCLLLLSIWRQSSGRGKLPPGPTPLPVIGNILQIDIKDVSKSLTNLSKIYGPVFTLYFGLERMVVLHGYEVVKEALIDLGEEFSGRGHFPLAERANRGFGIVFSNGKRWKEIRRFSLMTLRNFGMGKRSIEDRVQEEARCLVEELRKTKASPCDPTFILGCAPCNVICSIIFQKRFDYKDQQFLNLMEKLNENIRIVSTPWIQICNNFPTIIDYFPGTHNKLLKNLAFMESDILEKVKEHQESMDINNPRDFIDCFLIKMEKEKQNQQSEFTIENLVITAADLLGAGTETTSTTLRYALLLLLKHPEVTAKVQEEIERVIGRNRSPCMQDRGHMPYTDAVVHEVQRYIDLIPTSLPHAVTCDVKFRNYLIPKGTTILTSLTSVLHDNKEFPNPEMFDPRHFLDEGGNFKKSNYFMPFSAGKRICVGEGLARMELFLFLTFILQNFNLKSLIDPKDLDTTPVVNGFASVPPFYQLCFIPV
Assay: CYP2C19 inhibition (fluorescent substrate)
Type: in vitro ADME
Conditions: CYP2C19, CEC substrate; read-out: Cyp IC50 2C19
pIC50: −log10 of the molar value.
Measured pIC50 by item

Here's what some known entries look like.
COc1ncc(-c2cnc3[nH]cc(C(=O)c4c(F)ccc(NS(=O)(=O)c5c(F)cccc5F)c4F)c3c2)cn1 | < 5.00
CCCS(=O)(=O)Nc1ccc(F)c(C(=O)c2c[nH]c3ncc(-c4ccc(S(C)(=O)=O)cc4)cc23)c1F | 5.00 to 5.30
CCCS(=O)(=O)Nc1ccc(F)c(C(=O)c2c[nH]c3ncc(C#CCOC)cc23)c1F | 5.00 to 5.30
COc1ncc(-c2cnc3[nH]cc(C(=O)c4c(F)ccc(NS(=O)(=O)c5cc(F)ccc5F)c4F)c3c2)cn1 | < 5.00
N#Cc1ccnc2[nH]cc(C(=O)c3c(F)ccc(NS(=O)(=O)c4cccc(F)c4)c3F)c12 | < 5.00

Query: Item under review: N#Cc1ccnc2[nH]cc(C(=O)c3c(F)ccc(NS(=O)(=O)c4c(F)cccc4F)c3F)c12 . Reported pIC50?
Result: < 5.00

Query: For CCCS(=O)(=O)Nc1ccc(F)c(C(=O)c2c[nH]c3ncc(-c4cn[nH]c4)cc23)c1F , what is its reported pIC50?
Result: 5.00 to 5.30

Query: What does the record list as pIC50 for CCCS(=O)(=O)Nc1ccc(F)c(C(=O)c2c[nH]c3ncc(-c4ccc(OC)nc4OC)cc23)c1F ?
Result: < 5.00

Query: So what's the measured pIC50 for this one? CCCS(=O)(=O)Nc1ccc(F)c(C(=O)c2c[nH]c3ncc(-c4ccc(S(=O)(=O)NC)cc4)cc23)c1F
Result: 5.00 to 5.30

Query: Consider the molecule shown here: CCCS(=O)(=O)Nc1ccc(F)c(C(=O)c2c[nH]c3ncc(-c4ccc(F)nc4)cc23)c1F What is its recorded pIC50?
Result: 5.00 to 5.30

Query: Any idea what its pIC50 is? The molecule is O=C(c1c(F)ccc(NS(=O)(=O)c2cccc(F)c2)c1F)c1c[nH]c2nccc(Cl)c12
Result: < 5.00

----------
Each item that follows carries a reported pIC50.
Molecular target: CYP3A4(BFC) (Homo sapiens, UniProt P08684)
Sequence (P08684 whole entry): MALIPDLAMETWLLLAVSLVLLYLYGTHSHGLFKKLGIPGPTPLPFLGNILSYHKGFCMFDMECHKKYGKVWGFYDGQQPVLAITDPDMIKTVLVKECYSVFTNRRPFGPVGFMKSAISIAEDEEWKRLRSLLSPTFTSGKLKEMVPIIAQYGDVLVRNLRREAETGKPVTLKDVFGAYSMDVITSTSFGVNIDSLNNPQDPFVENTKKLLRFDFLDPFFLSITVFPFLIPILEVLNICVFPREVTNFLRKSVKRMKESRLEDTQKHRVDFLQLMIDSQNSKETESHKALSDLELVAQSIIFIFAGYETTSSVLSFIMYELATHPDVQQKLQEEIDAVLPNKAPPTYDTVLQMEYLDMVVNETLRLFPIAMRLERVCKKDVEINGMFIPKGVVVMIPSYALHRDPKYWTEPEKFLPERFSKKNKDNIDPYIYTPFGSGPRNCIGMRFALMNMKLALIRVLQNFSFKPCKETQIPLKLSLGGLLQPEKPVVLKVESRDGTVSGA
Assay: CYP3A4(BFC) inhibition (fluorescent substrate)
Type: in vitro ADME
Conditions: read-out: Cyp IC50 3A4(BFC)
pIC50: −log10 of the molar value.

CCCS(=O)(=O)Nc1ccc(F)c(C(=O)c2c[nH]c3ncc(-c4cnn(CCN5CCOCC5)c4)cc23)c1F | > 5.30

Query: Any idea what pIC50 was measured for COc1ccnc2[nH]cc(C(=O)c3c(F)ccc(NS(=O)(=O)c4cccnc4)c3F)c12 ?
Result: 5.00 to 5.30

Query: What does the record list as pIC50 for Cc1cnc2[nH]cc(C(=O)c3c(F)ccc(NS(=O)(=O)c4cccc(F)c4)c3F)c2c1 ?
Result: < 5.00

Query: // returns reported pIC50 for input N#Cc1cnc2[nH]cc(C(=O)c3cccc(NS(=O)(=O)c4cc(F)ccc4F)c3F)c2c1
Result: 5.00 to 5.30

Query: Name the reported pIC50 value associated with the compound O=C(c1c(F)ccc(NS(=O)(=O)c2cc(F)ccc2F)c1F)c1c[nH]c2ncc(Cl)cc12
Result: < 5.00

Query: Entry Cc1cnc2[nH]cc(C(=O)c3c(F)ccc(NS(=O)(=O)c4c(F)cccc4F)c3F)c2c1 has what pIC50?
Result: < 5.00

Query: GET /values?readout=pIC50&item= N#Cc1cnc2[nH]cc(C(=O)c3cccc(NS(=O)(=O)c4c(F)cccc4F)c3F)c2c1
Result: < 5.00

----------
Molecular target: CYP2C9 (Homo sapiens)
Sequence (P11712 whole entry): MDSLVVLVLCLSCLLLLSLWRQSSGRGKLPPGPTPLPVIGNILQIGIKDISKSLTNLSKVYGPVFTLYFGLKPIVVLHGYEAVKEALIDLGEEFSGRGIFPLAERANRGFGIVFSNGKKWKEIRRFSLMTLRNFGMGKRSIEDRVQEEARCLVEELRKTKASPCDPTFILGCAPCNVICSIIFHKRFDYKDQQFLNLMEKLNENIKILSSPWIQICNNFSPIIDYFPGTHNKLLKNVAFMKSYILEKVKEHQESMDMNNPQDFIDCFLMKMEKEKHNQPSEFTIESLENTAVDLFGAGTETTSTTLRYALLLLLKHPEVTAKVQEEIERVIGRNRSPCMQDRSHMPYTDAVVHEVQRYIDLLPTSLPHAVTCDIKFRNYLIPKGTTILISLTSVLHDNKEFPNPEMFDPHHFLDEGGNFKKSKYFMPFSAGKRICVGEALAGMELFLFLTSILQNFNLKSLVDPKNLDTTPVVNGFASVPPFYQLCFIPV
Assay: CYP2C9 inhibition (fluorescent substrate)
Assay type: in vitro ADME
Details: CYP2C9, MFC substrate; read-out: Cyp IC50 2C9
pIC50: −log10 of the molar value.
experimental_readout: pIC50

Worked cases, pIC50 given:
CCCS(=O)(=O)Nc1ccc(F)c(C(=O)c2c[nH]c3ncc(-c4ccc(SC)nc4)cc23)c1F | < 5.00
CCCS(=O)(=O)Nc1ccc(F)c(C(=O)c2c[nH]c3ncc(-c4ccc(OCCN5CCCC5)nc4)cc23)c1F | < 5.00
CCCS(=O)(=O)Nc1ccc(F)c(C(=O)c2c[nH]c3ncc(-c4cnc(N(C)C)nc4)cc23)c1F | 5.00 to 5.30
CCCS(=O)(=O)Nc1ccc(F)c(C(=O)c2c[nH]c3ncc(-c4cnn(CCN5CCOCC5)c4)cc23)c1F | > 5.30
CCCS(=O)(=O)Nc1ccc(F)c(C(=O)c2c[nH]c3ncc(-c4cncnc4)cc23)c1F | 5.00 to 5.30

Please look at the following compound next.
Query: // lookup pIC50 for CCCS(=O)(=O)Nc1cccc(C(=O)c2c[nH]c3ncc(-c4cnc(N(C)C)nc4)cc23)c1F
Result: 5.00 to 5.30

----------
Each entry below carries its recorded IC50.
Target: CYP1A2 (Homo sapiens, UniProt P05177)
Sequence (P05177 whole entry): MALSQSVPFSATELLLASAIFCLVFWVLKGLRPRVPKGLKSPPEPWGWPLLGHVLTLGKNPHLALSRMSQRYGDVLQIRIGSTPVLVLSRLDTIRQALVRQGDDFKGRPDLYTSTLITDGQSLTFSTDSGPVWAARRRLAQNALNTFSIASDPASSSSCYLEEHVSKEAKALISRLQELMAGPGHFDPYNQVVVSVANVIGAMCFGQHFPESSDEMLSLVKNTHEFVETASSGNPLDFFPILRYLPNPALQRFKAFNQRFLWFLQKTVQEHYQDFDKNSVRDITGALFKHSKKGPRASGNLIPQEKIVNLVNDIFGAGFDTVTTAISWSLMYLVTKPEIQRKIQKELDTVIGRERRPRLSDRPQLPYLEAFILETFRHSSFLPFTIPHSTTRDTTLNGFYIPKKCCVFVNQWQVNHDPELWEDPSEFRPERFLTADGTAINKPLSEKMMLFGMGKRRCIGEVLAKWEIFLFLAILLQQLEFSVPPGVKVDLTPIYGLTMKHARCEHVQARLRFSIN
Test: CYP1A2 inhibition (fluorescent substrate)
Assay type: in vitro ADME
Conditions: CYP1A2, CEC substrate; read-out: Cyp IC50 1A2

Study these solved cases before continuing.
N#Cc1ccnc2[nH]cc(C(=O)c3c(F)ccc(NS(=O)(=O)c4ccccc4F)c3F)c12 | > 10 µM
CCCS(=O)(=O)Nc1ccc(F)c(C(=O)c2c[nH]c3ncc(-c4cncnc4)cc23)c1F | < 5 µM
CCCS(=O)(=O)Nc1ccc(F)c(C(=O)c2c[nH]c3ncc(-c4ccc(OC)nc4OC)cc23)c1F | > 10 µM

Let us move to another entry and its IC50.
Query: Would you kindly share the measured IC50 for COc1ccnc2[nH]cc(C(=O)c3c(F)ccc(NS(=O)(=O)c4cccnc4)c3F)c12 ?
Result: > 10 µM

----------
Target: CYP2C19 (Homo sapiens)
Test: CYP2C19 inhibition (fluorescent substrate)
Format: in vitro ADME
Settings: CYP2C19, CEC substrate; read-out: Cyp IC50 2C19
pIC50: −log10 of the molar value.
We begin with a simple list: items and their reported pIC50.

O=C(c1c(F)ccc(NS(=O)(=O)c2cc(F)ccc2F)c1F)c1c[nH]c2ncc(Cl)cc12 | 5.00 to 5.30
COc1ncc(-c2cnc3[nH]cc(C(=O)c4c(F)ccc(NS(=O)(=O)c5cccc(F)c5)c4F)c3c2)cn1 | < 5.00
CCCS(=O)(=O)Nc1ccc(F)c(C(=O)c2c[nH]c3ncc(-c4ccc(C(=O)NCC)nc4)cc23)c1F | < 5.00
CCCS(=O)(=O)Nc1ccc(F)c(C(=O)c2c[nH]c3ncc(-c4ccc(C(=O)NC)nc4)cc23)c1F | 5.00 to 5.30
CCCS(=O)(=O)Nc1ccc(F)c(C(=O)c2c[nH]c3ncc(-c4ccc(OCCCN(C)C)nc4)cc23)c1F | 5.00 to 5.30

Query: Sample CCCS(=O)(=O)Nc1ccc(F)c(C(=O)c2c[nH]c3ncc(-c4cnc(N(C)C)nc4)cc23)c1F — what was its pIC50?
Result: < 5.00

Query: Name the reported pIC50 value associated with the compound CCCS(=O)(=O)Nc1ccc(F)c(C(=O)c2c[nH]c3ncc(-c4cnc(OC)nc4OC)cc23)c1F
Result: < 5.00

Query: # input compound: CCCS(=O)(=O)Nc1ccc(F)c(C(=O)c2c[nH]c3ncc(-c4ccc(C)nc4)cc23)c1F ; wanted: its pIC50
Result: < 5.00

Query: Consider the compound shown here: CCCS(=O)(=O)Nc1cccc(C(=O)c2c[nH]c3ncc(-c4cnc(OC)nc4)cc23)c1F What is its recorded pIC50?
Result: > 5.30

Query: Consider the compound CCCS(=O)(=O)Nc1ccc(F)c(C(=O)c2c[nH]c3ncc(-c4ccc(Cl)nc4)cc23)c1F and give its measured pIC50.
Result: 5.00 to 5.30

Query: Which pIC50 value belongs to N#Cc1cnc2[nH]cc(C(=O)c3cccc(NS(=O)(=O)c4ccccc4)c3F)c2c1 ?
Result: < 5.00

Query: // returns reported pIC50 for input CCCS(=O)(=O)Nc1ccc(F)c(C(=O)c2c[nH]c3ncc(-c4cncnc4)cc23)c1F
Result: < 5.00

Query: What pIC50 value was documented for this compound, CCCS(=O)(=O)Nc1ccc(F)c(C(=O)c2c[nH]c3ncc(-c4ccc(CCCOC)nc4)cc23)c1F ?
Result: < 5.00

Query: Consider the compound O=C(c1c(F)ccc(NS(=O)(=O)c2c(F)cccc2F)c1F)c1c[nH]c2ncc(Cl)cc12 and give its measured pIC50.
Result: < 5.00

Query: Bench note: what pIC50 did N#Cc1ccnc2[nH]cc(C(=O)c3c(F)ccc(NS(=O)(=O)c4cccnc4)c3F)c12 show?
Result: < 5.00
